Values from ChEMBL document CHEMBL1124683

System: Escherichia coli
Assay: Compound was tested in vitro for antibacterial activity against Escherichia coli A-15119
Assay type: functional

{"compound": "CC(O)[C@H]1C(=O)N2C(C(=O)O)=C(SCc3ccncc3)CC12 (some centres undefined)", "MIC (ng/mL)": 30}
{"compound": "CC(O)[C@H]1C(=O)N2C(C(=O)[O-])=C(SCc3cc[n+](C)cc3)CC12 (some centres undefined)", "MIC (ng/mL)": 30}
{"compound": "CC(O)[C@H]1C(=O)N2C(C(=O)[O-])=C(SCc3n(C)cc[n+]3C)CC12 (some centres undefined)", "MIC (ng/mL)": 8}
{"compound": "CC(O)[C@H]1C(=O)N2C(C(=O)[O-])=C(SCc3n(C)cc[n+]3C)[C@H](C)C12 (some centres undefined)", "MIC (ng/mL)": 4}
{"compound": "Cc1c(CSC2=C(C(=O)[O-])N3C(=O)[C@H](C(C)O)C3C2)ccc[n+]1C (some centres undefined)", "MIC (ng/mL)": 8}
{"compound": "Cc1c(CSC2=C(C(=O)[O-])N3C(=O)[C@H](C(C)O)C3[C@H]2C)ccc[n+]1C (some centres undefined)", "MIC (ng/mL)": 4}
{"compound": "C[C@@H](O)[C@H]1C(=O)N2C(C(=O)O)=C(SCCN=CN)C[C@H]12 [IMIPENEM ANHYDROUS]", "MIC (ng/mL)": 16}
{"compound": "CC(O)[C@H]1C(=O)N2C(C(=O)O)=C(SCc3nccn3C)[C@H](C)C12 (some centres undefined)", "MIC (ng/mL)": 8}
{"compound": "CC(O)[C@H]1C(=O)N2C(C(=O)[O-])=C(SCc3cc[n+](C)cc3)[C@H](C)C12 (some centres undefined)", "MIC (ng/mL)": 16}

----------
Organism: Sus scrofa
Assay: Compound was evaluated for the rate of hydrolysis by renal dipeptidase relative to hog renal dipeptidase
Format: ADME
Conditions: pig; in the assay text read “relative to imipenem” for “relative to hog renal dipeptidase”
Each entry below lists one item and its recorded Relative rate value.
value.type: Relative rate

{"molecule": "CC(O)[C@H]1C(=O)N2C(C(=O)[O-])=C(SCc3n(C)cc[n+]3C)CC12 (some centres undefined)", "value.type": "Relative rate", "endpoint.result": 0.2}
{"molecule": "Cc1c(CSC2=C(C(=O)[O-])N3C(=O)[C@H](C(C)O)C3[C@H]2C)ccc[n+]1C (some centres undefined)", "value.type": "Relative rate", "endpoint.result": 0.01}
{"molecule": "CC(O)[C@H]1C(=O)N2C(C(=O)[O-])=C(SCc3n(C)cc[n+]3C)[C@H](C)C12 (some centres undefined)", "value.type": "Relative rate", "endpoint.result": 0.003}
{"molecule": "C[C@@H](O)[C@H]1C(=O)N2C(C(=O)O)=C(SCCN=CN)C[C@H]12 [IMIPENEM ANHYDROUS]", "value.type": "Relative rate", "endpoint.result": 1}
{"molecule": "CC(O)[C@H]1C(=O)N2C(C(=O)O)=C(SCc3nccn3C)[C@H](C)C12 (some centres undefined)", "value.type": "Relative rate", "endpoint.result": 0.94}
{"molecule": "Cc1c(CSC2=C(C(=O)[O-])N3C(=O)[C@H](C(C)O)C3C2)ccc[n+]1C (some centres undefined)", "value.type": "Relative rate", "endpoint.result": 0.4}
{"molecule": "CC(O)[C@H]1C(=O)N2C(C(=O)[O-])=C(SCc3cc[n+](C)cc3)[C@H](C)C12 (some centres undefined)", "value.type": "Relative rate", "endpoint.result": 0.02}
{"molecule": "CC(O)[C@H]1C(=O)N2C(C(=O)O)=C(SCc3ccncc3)CC12 (some centres undefined)", "value.type": "Relative rate", "endpoint.result": 3.84}
{"molecule": "CC(O)[C@H]1C(=O)N2C(C(=O)[O-])=C(SCc3cc[n+](C)cc3)CC12 (some centres undefined)", "value.type": "Relative rate", "endpoint.result": 0.84}
